Please go through the items and note down their Emax.
- measured-on: delF508-CFTR (Homo sapiens, UniProt P13569, DEL508-508)
- Construct: Unaltered CFBE41o− cells were used as the model; endogenous in cells; host or cells: CFBE41o- human CF bronchial epithelial cells (delF508 homozygous, not overexpressing)
- Sequence (P13569 with tags, fused parts or gaps DEL508-508): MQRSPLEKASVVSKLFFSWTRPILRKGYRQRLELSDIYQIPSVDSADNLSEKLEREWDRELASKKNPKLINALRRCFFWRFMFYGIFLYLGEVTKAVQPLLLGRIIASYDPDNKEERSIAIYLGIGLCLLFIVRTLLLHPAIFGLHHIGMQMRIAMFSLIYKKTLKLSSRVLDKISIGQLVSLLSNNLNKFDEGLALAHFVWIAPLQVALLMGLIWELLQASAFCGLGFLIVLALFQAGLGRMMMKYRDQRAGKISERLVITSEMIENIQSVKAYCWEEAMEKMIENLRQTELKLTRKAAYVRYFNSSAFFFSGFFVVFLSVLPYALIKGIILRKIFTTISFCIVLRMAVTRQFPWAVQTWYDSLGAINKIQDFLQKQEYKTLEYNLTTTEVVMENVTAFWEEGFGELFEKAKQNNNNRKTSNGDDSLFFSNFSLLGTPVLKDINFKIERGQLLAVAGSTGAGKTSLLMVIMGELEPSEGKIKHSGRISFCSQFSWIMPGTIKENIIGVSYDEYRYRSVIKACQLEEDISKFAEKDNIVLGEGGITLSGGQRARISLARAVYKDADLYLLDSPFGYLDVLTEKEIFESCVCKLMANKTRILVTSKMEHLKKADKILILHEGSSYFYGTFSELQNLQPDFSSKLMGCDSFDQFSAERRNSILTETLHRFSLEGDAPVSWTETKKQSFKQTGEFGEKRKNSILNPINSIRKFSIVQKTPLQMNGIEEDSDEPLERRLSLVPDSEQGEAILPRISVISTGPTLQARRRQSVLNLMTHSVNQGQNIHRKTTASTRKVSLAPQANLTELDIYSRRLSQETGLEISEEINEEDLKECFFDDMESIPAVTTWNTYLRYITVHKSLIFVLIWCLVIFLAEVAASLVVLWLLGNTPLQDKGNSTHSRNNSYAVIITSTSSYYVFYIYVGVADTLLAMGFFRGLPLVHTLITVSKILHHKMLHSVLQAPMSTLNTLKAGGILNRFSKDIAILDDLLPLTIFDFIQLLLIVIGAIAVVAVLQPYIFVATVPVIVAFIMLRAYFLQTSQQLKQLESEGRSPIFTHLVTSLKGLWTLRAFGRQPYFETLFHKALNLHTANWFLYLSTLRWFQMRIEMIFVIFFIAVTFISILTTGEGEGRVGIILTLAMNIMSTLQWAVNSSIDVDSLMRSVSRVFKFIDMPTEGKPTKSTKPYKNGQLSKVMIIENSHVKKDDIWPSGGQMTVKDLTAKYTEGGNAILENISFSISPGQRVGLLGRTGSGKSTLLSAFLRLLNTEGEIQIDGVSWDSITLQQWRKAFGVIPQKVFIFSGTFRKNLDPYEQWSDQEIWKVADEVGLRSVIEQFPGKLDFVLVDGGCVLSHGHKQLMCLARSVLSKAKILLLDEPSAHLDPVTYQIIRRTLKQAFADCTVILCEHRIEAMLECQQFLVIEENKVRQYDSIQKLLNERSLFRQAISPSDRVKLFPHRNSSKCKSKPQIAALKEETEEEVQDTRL
- assay-summary: SPQ halide-sensitive fluorescence dye profiling assay (rescue of halide efflux)
- Type: cell-based
- condition-summary: VX-809 at 3 μM treated as 100% efficacy
Lab book: enter the figure in %, no units written.

Please list Emax recorded for the molecule CCOC(=O)c1nnc2c(-c3ccc(O)cc3)c(C)nn2c1C
0

Please list Emax recorded for the molecule CNC(=O)c1nnc2c(-c3ccc(Cl)c(Cl)c3)c(C)nn2c1C
50

Please list Emax recorded for the molecule Cc1nn2c(C)c(C(=O)O)nnc2c1-c1ccc(O)cc1
120

Please list Emax recorded for the molecule Cc1nn2c(C)c(C(=O)OC(C)C)nnc2c1-c1ccc(Cl)c(Cl)c1
50

Please list Emax recorded for the molecule CCCOC(=O)c1nnc2c(-c3ccc(Cl)cc3)c(C)nn2c1C
100

Please list Emax recorded for the molecule CCS(=O)(=O)NC(=O)c1nnc2c(-c3ccc(Cl)c(Cl)c3)c(C)nn2c1C
80

Please list Emax recorded for the molecule Cc1nn2c(C)c(C(=O)O)nnc2c1-c1ccc2c(c1)OCO2
20

Please list Emax recorded for the molecule Cc1nnc(-c2nnc3c(-c4ccc(Cl)c(Cl)c4)c(C)nn3c2C)o1
5

---

- measured-on: delF508-CFTR (Homo sapiens, UniProt P13569, DEL508-508)
- Construct: Unaltered CFBE41o− cells were used as the model; endogenous in cells; host or cells: CFBE41o- human CF bronchial epithelial cells (delF508 homozygous, not overexpressing)
- assay-summary: SPQ halide-sensitive fluorescence dye profiling assay (rescue of halide efflux)
- Assay type: cell-based
- condition-summary: VX-809 at 3 μM treated as 100% efficacy
Please go through the items and note down their Emax.
Remember to quote the unit after the number.

Retrieve Emax on delF508-CFTR (Homo sapiens, UniProt P13569, DEL508-508); query CCOC(=O)c1nnc2c(-c3ccc(OCC)cc3)c(C)nn2c1C
75%

Retrieve Emax on delF508-CFTR (Homo sapiens, UniProt P13569, DEL508-508); query Cc1nn2c(C)c(C(=O)O)nnc2c1Cc1ccc(Cl)c(Cl)c1
75%

Retrieve Emax on delF508-CFTR (Homo sapiens, UniProt P13569, DEL508-508); query Cc1nn2c(C)c(C(=O)C(=O)O)nnc2c1-c1ccc(Cl)c(Cl)c1
160%

Retrieve Emax on delF508-CFTR (Homo sapiens, UniProt P13569, DEL508-508); query O=C(O)c1ccc2c(-c3ccc(Cl)c(Cl)c3)noc2n1
25%

Retrieve Emax on delF508-CFTR (Homo sapiens, UniProt P13569, DEL508-508); query CCOc1ccc(-c2c(C)nn3c(C)c(C(=O)O)nnc23)cc1
220%

Retrieve Emax on delF508-CFTR (Homo sapiens, UniProt P13569, DEL508-508); query Cc1nn2c(C)c(C(=O)O)nnc2c1-c1ccc(OC(C)C)cc1
100%

Retrieve Emax on delF508-CFTR (Homo sapiens, UniProt P13569, DEL508-508); query Cc1nn2c(C)c(-c3nnn[nH]3)nnc2c1-c1ccc(Cl)c(Cl)c1
0%

Retrieve Emax on delF508-CFTR (Homo sapiens, UniProt P13569, DEL508-508); query CCOC(=O)c1ccc2c(-c3ccc(Cl)c(Cl)c3)n[nH]c2n1
0%

Retrieve Emax on delF508-CFTR (Homo sapiens, UniProt P13569, DEL508-508); query CCOC(=O)c1nnc2c(-c3ccc(OC4CCCC4)cc3)c(C)nn2c1C
-75%

This collection of values is drawn from patent US9676779B2.
